# target_or_test_system: PfRH5 from Plasmodium falciparum strain D10 (Plasmodium falciparum)
# assay_procedure: cell-based or functional assay
# Max growth inhibition (%) values compiled below
measured_quantity: Max growth inhibition (%)

[[record]]
binder = "H1H29109P (antibody, V domains shown) VH: EVQLVESGGGLVQPGRSLRLSCAVSGFTFDDYAMHWVRQAPGKGLEWVSGISWNSGDIDYADSVKGRFTISRDNAKNSLYLQMNSLRAEDTALYYCAKDTLSGTGTTWYYFDYWGQGTLVTVSS VL: DIQLTQSPSFLSASVGDRVTITCWASQGISSYLIWYQQKPGKAPKLLIYAASTLQSGVPSRFSGSGSGTEFTLTISSLQPEDFATYYCQQVNSYPLTFGGGTKVEIKR"
measured_quantity = "Max growth inhibition (%)"
numeric_result = 44.8

[[record]]
binder = "H1H29138P (antibody, V domains shown) VH: QVQLVESGGGVVQPGRSLRLSCAASGFTFSTYGMHWVRQAPGKGLEWVAVIWYDGTNKYYADSVKGRFTISRDNSKNTLYLQMISLRAEDTAVYYCARDPSGGDHYYYYGMDVWGQGTTVTVSS VL: DIQMTQSPSSLSASVGDRITITCQASQDISNYLNWYQQKPGKAPNLLISDASDLETGVPSRFSGSGSGTDFTFTISSLQPEDFATYYCQQYDNIPITFGQGTRLEIKR"
measured_quantity = "Max growth inhibition (%)"
numeric_result = 57.1

[[record]]
binder = "H1H29125P (antibody, V domains shown) VH: QVQLVESGGGVVQPGRSLRLSCAASGFTFSSYGMHWVRQAPGKGLEWMAVISYDGSNKYYADSVKGRFTISRDNSKNTLFLQMNSLRPEDTAVYYCAQDGSSAIYYFYGMDVWGQGTTVTVSS VL: DIQMTQSPSSLSASIGDRVTITCRASQDINNYLAWFQQKPGKAPKSLIYAASSLQSGVPSKFSGSGSGTDFTLTISSLQPEDFATYYCLQYNSYHPTFGQGTKLEIKR"
measured_quantity = "Max growth inhibition (%)"
numeric_result = 75.4

[[record]]
binder = "H1H29127P (antibody, V domains shown) VH: QVQLVESGGGVVQPGRSLRLSCAASGFTFSSYGMHWVRQAPGKGLEWVAAIWYDGSNKYYADSVKGRFTISRDNSKNTLYLQMNSLRAEDTAVYFCARGEHYYGSGPFDPWGQGTLVTVSS VL: DIQMTQSPSSLSASVGDRVTITCRASQSISNYLNWYQQKPGKAPKLLIFAASSLQSGVPSRFSGSGSGTDFTLTISSLQPEDFATYYCQQSYSSPLTFGGGTKVEIKR"
measured_quantity = "Max growth inhibition (%)"
numeric_result = 74.4

[[record]]
binder = "H1H29100P (antibody, V domains shown) VH: QLQLQESGPGLVKPSETLSLTCTVSGGSISSSSYYWGWIRQPPGKGLEWIGIIYYSGSTYYNPSLKSRVTISVDTSKNQFSLKLSSVTAADTAVYYCARQDREALFDYWGQGTLVTVSS VL: EIVLTQSPDFQSVTPKEKVTITCRASQRIGSSLHWYQQKPDQSPKLLIKYASQSFSGVPSRFSGSGSGTDFTLTINSLEAEDAATYYCHQSSTLPTFGQGTRLEIKR"
measured_quantity = "Max growth inhibition (%)"
numeric_result = 81.7


Recorded values, source patent US20210024625A1.
